This collection of values is drawn from PubChem BioAssay.

Quick reference: remaining activity of the listed items.
tested on: Aerobactin synthetase IucA (Klebsiella pneumoniae); assay: IucA aerobactin synthetase inhibitors, biochemical, Tocris library, absorbance (AID 1345561); settings: purified IucA enzyme assay, absorbance (OD) read-out; stronger effect = lower value;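 tested at 8 µM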;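 further: 100% = enzyme without compound and 0% = no enzyme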
Give the value, in units of %, as a plain number.

Here are 3 molecules together with their reported answers.
[
  {
    "molecule": "O=S(=O)(c1cccc2c(Cl)cccc12)N1CCCNCC1",
    "targetEntity": "Aerobactin synthetase IucA (Klebsiella pneumoniae)",
    "remaining activity / %": 97.3
  },
  {
    "molecule": "C[C@@H](N)C1CCC(C(=O)Nc2ccncc2)CC1 (some centres undefined)",
    "targetEntity": "Aerobactin synthetase IucA (Klebsiella pneumoniae)",
    "remaining activity / %": 114
  },
  {
    "molecule": "CC(C)(C)c1cc(O)c(C(C)(C)C)cc1O",
    "targetEntity": "Aerobactin synthetase IucA (Klebsiella pneumoniae)",
    "remaining activity / %": 129
  }
]

# ---- query molecule ----
Tell me the measured remaining activity of CCSC(=N)N , please.
116

----------
# key: entry, value: fold fluorescence
assay: inhibitors of Cryptococcus chitosan production, flow cytometry, Cibacron Brilliant Red staining (AID 1347148); conditions: Cryptococcus neoformans chitosan, stronger effect = lower value; at 10 µM unless noted;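 further: compound exposure lasted three days at 37 degrees C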
The source made the active and inactive calls. No rule for the calls is given here.

[
  {
    "molecule": "C/C=C/CC(C)C(O)C1C(=O)NC(CC)C(=O)N(C)CC(=O)N(C)C(CC(C)C)C(=O)NC(C(C)C)C(=O)N(C)C(CC(C)C)C(=O)NC(C)C(=O)NC(C)C(=O)N(C)C(CC(C)C)C(=O)N(C)C(CC(C)C)C(=O)N(C)C(C(C)C)C(=O)N1C (stereo not drawn)",
    "observedResult": "18.1 [at 41.6 µM] (inactive)"
  },
  {
    "molecule": "Cc1c(C(=O)NN2CCCCC2)nn(-c2ccc(Cl)cc2Cl)c1-c1ccc(I)cc1",
    "observedResult": "6.03 (inactive)"
  }
]

State the recorded fold fluorescence for this entry: CN(C)c1ccc(/C=C2\C(=O)Nc3ccccc32)cc1
5.59 [at 189.2 µM] (inactive)

----------
assay: HepG2 cytotoxicity, primary screen, cytotoxicity control for P. falciparum antimalarial project, cell-based, ATP luminescence (AID 2303); details: HepG2 viability, 24-48 h, at 10 µM, stronger effect = higher value;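 further: 0% = DMSO wells and 100% = digitonin-killed cells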
Calls of active or inactive are those of the source.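 The calls were made as follows: active = inhibition above 50%; inactive = the rest.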
measurementType: inhibition

[
  {
    "compound": "CCN(CC)CCCN(C(=O)Nc1cc(F)cc(F)c1)c1nc(-c2ccc(F)cc2)cs1",
    "inhibition": "27% (inactive)"
  },
  {
    "compound": "O=C(NCCCNc1ccnc2cc(Cl)ccc12)c1ccccc1F",
    "inhibition": "18% (inactive)"
  },
  {
    "compound": "CC(C)CC1c2[nH]c3ccccc3c2CCN1C(=O)CCc1ccccc1 (stereo not given)",
    "inhibition": "-13% (inactive)"
  }
]

Entry under review: CC(C)c1ccc(NC(=O)c2cccc(CN3CCCN(Cc4cccc(O)c4)CC3)c2)cc1 . Reported inhibition?
25% (inactive)

Could you tell me which inhibition is on file for CCCCCCn1c2c(c(=N)c3c1CCC3)CCC2 ?
32% (inactive)

----------
experiment: inhibitors of mitochondrial cytochrome c release, biochemical, purified mitochondria (AID 1603); settings: stronger effect = lower value;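 further: mouse liver mitochondria challenged with calcium chloride; signal normalized to the plate average as 100%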
measurementType: cytochrome c release ratio
Reply with the value as a number alone.

Consider the reported cytochrome c release ratio for these compounds:
[
  {
    "compound": "COc1ccc(C[C@H](N)C(=O)N[C@@H]2[C@@H](CO)OC(n3cnc4c(N(C)C)ncnc43)[C@@H]2O)cc1 (stereo partly drawn)",
    "cytochrome c release ratio": 1.17
  },
  {
    "compound": "CO[C@@]12[C@@H]3NC3CN1C1=C(C(=O)C(N)=C(C)C1=O)[C@@H]2COC(N)=O (stereo partly drawn)",
    "cytochrome c release ratio": 1
  },
  {
    "compound": "CN1CCN(C(c2ccccc2)c2ccc(Cl)cc2)CC1 (stereo not drawn)",
    "cytochrome c release ratio": 1.15
  },
  {
    "compound": "CCC[C@@H]1C[C@@H](C(=O)N[C@H]([C@H]2O[C@H](SC)[C@H](O)[C@@H](O)[C@H]2O)[C@H](C)O)N(C)C1",
    "cytochrome c release ratio": 0.99
  }
]

Consider the compound CCCCC[C@H](CC(=O)NO)C(=O)N[C@H](C(=O)N1CCC[C@H]1CO)C(C)C and give its measured cytochrome c release ratio.
0.78

Give its cytochrome c release ratio value. Item: CC1(C)O[C@@H]2CC3C4CCC5=CC(=O)C=C[C@]5(C)[C@@]4(F)[C@@H](O)C[C@]3(C)[C@]2(C(=O)CO)O1 (stereo partly drawn)
1.15

Given CO/N=C(/C(=O)NC1C(=O)N2C(C(=O)O)=C(COC(N)=O)CSC12)c1ccco1 (stereo not drawn) , state its recorded cytochrome c release ratio.
1.1

Any idea what cytochrome c release ratio was measured for C[C@@H]1CC2C3CCC4=CC(=O)C=C[C@]4(C)[C@@]3(F)[C@@H](O)C[C@]2(C)[C@@]1(O)C(=O)CO (stereo partly drawn) ?
0.84

Name the reported cytochrome c release ratio value associated with the compound O=c1[nH]c(=O)n(C2C[C@@H](O)[C@@H](CO)O2)cc1F (stereo partly drawn)
0.97

Entry under review: CN[C@@H]1C(OC2[C@H](O[C@H]3[C@H](O)[C@@H](O)[C@H](N=C(N)N)[C@@H](O)[C@@H]3N=C(N)N)OC(C)[C@]2(O)CO)OC(CO)C(O)C1O (stereo partly drawn) . Reported cytochrome c release ratio?
0.93

Using the record for CCCCC(=O)O[C@H]1CCC2C3CCc4cc(O)ccc4C3CC[C@@]21C (stereo partly drawn) , report its cytochrome c release ratio.
1.02
